biological target: hBuChE (Homo sapiens, UniProt P06276); construct: 8.3 μL of either blood cell lysate or plasma dilutions; assay: biochemical; settings: mean ± SD of three independent measurements, each in triplicate
METRIC: IC50

- COMPOUND: "COc1ccc2c3c1O[C@H]1C=CC=C[C@@]31CCN(C)C2 [3,4-Anhydrogalanthamine (3), 3,4-anhydrogalanthamine]"
  IC50: "> 100 µM"
- COMPOUND: "c1ccc2c(c1)ncc1cc3c(cc12)OCO3"
  IC50: "> 100 µM"
- COMPOUND: "COc1cc(C=O)c(-c2cccc3c2N(C)CC3)cc1OC"
  IC50: "> 100 µM"
- COMPOUND: "COc1cc(CN(C)CCc2ccc(O)cc2)c(-c2cccc3c2N(C)CC3)cc1OC"
  IC50: "0.91 µM"
- COMPOUND: "COc1cc(CN(CCc2ccc(O)cc2)Cc2cc(OC)c(OC)cc2-c2cccc3c2N(C)CC3)c(-c2cccc3c2N(C)CC3)cc1OC"
  IC50: "14.8 µM"

Shifting focus to the compound that follows.
Record CN(CCc1ccc(O)cc1)Cc1cc2c(cc1-c1cccc3c1N(C)CC3)OCO2 , field IC50: 0.031 µM

----------
molecular target: hBuChE (Homo sapiens); construct: 8.3 μL of either blood cell lysate or plasma dilutions; from tissue; host or cells: plasma; assay: biochemical; format: biochemical; conditions: tested at 100 µM compound concentration; read-out: % inhibition hBuChE ± SD
METRIC: inhibition at 100 µM (%)
Numbers only, in %.

- COMPOUND: "COc1cc(CN(CCc2ccc(O)cc2)Cc2cc(OC)c(OC)cc2-c2cccc3c2N(C)CC3)c(-c2cccc3c2N(C)CC3)cc1OC [Carltonine C (15), carltonine C]"
  MEASUREMENT TARGET: "hBuChE (Homo sapiens)"
  METRIC: "inhibition at 100 µM"
  QUANTITATIVE READOUT: 78
- COMPOUND: "COc1cc(CN(C)CCc2ccc(O)cc2)c(-c2cccc3c2N(C)CC3)cc1OC [Carltonine A (13), carltonine A]"
  MEASUREMENT TARGET: "hBuChE (Homo sapiens)"
  METRIC: "inhibition at 100 µM"
  QUANTITATIVE READOUT: 98

Report inhibition at 100 µM for every entry below.
1. COc1cc(C=O)c(-c2cccc3c2N(C)CC3)cc1OC [Lycosinine B (1), lycosinine B]
2. COc1ccc2c3c1O[C@H]1C=CC=C[C@@]31CCN(C)C2 [3,4-Anhydrogalanthamine (3), 3,4-anhydrogalanthamine]

1: 42; 2: 28

List the reported inhibition at 100 µM of each compound below.
1. c1ccc2c(c1)ncc1cc3c(cc12)OCO3 [Trispheridine (2), trisphaeridine]
2. CN(CCc1ccc(O)cc1)Cc1cc2c(cc1-c1cccc3c1N(C)CC3)OCO2 [Carltonine B (14), carltonine B]

[13, 99]

----------
Target: UniProt P48147
Sequence (P48147 1-710): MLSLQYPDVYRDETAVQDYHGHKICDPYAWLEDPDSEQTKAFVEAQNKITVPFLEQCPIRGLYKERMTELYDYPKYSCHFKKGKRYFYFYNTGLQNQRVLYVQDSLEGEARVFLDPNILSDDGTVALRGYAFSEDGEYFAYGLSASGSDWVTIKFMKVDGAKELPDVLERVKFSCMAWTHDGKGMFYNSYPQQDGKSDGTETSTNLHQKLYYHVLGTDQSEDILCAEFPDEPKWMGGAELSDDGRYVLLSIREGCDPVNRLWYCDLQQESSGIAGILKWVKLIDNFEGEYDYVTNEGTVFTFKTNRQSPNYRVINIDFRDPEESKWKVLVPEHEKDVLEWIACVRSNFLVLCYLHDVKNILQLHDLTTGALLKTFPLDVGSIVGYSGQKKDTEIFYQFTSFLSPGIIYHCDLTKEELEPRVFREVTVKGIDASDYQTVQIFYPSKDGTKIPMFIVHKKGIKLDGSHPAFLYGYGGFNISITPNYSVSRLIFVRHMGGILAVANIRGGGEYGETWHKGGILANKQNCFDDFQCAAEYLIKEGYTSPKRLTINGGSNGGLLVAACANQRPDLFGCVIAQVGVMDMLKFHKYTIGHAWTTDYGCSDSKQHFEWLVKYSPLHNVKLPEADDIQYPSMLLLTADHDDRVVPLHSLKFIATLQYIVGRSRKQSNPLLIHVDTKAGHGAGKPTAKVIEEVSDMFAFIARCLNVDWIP
Provide the recorded IC50 for the entries that follow.
One number for each entry, in µM.

- COMPOUND: "COc1cc(C=O)c(-c2cccc3c2N(C)CC3)cc1OC [Lycosinine B (1), lycosinine B]"
  UNIT INFO: "µM"
  IC50: 258

IC50 for COc1cc(CN(C)CCc2ccc(O)cc2)c(-c2cccc3c2N(C)CC3)cc1OC [Carltonine A (13), carltonine A] is 143
